target desc: acetylcholine receptor
assay comment: SPR, AchR immobilised on chip, peptide 10 uM
assay endpoint: Binding affinity (RU)

(A) RKSVCR [6mer-1-265]
(B) KEAPR [5mer-800]
(C) RHTAR [5mer-1135]
(D) RHKIR [5mer-1117]
Query: Endpoint returns the given binders ordered by ascending Binding affinity (RU). // format: requested-order list of labels
Result: D, C, B, A
(D: 11 RU, C: 17 RU, B: 29 RU, A: 145 RU)

(I) KKRYCR [6mer-1-235]
(II) RIMHK [5mer-820]
Query: Sorting by Binding affinity (RU) in descending order, would I or II appear first? Indicate which entry you chose by stating its label.
Result: I

(A) RRVICR [6mer-1-250]
(B) RHMER [5mer-1113]
(C) KMTMR [5mer-811]
(D) KIDMK [5mer-824]
Query: Order field: Binding affinity (RU) | Direction: descending (largest first) Response field: labels, in requested order.
Result: A, C, B, D
